Recorded values, source patent US20220162331A1.

Catalogue of binders with associated CD73 endocytosis ratio %, 240 minutes
Target: T1, human CD73 on Calu6 cells (human, UniProt P21589 27-549)
T1 sequence (looked up): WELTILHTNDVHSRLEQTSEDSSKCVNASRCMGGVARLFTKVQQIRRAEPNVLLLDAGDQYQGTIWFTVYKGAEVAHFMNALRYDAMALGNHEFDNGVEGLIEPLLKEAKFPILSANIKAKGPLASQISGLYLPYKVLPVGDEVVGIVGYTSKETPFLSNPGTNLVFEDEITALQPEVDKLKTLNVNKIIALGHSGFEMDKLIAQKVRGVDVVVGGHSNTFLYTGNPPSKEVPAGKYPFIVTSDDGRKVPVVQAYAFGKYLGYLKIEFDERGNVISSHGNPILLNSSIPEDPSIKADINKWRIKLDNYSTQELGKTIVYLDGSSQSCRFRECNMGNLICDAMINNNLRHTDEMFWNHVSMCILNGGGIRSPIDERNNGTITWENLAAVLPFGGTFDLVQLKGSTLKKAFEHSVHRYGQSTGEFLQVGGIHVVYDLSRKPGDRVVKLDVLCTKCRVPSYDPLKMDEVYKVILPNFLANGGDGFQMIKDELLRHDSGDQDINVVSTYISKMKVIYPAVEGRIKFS
Test: cell-based or functional assay
State just the number; it will be interpreted in %.

Known CD73 endocytosis ratio %, 240 minutes results, listed for orientation:
binder	CD73 endocytosis ratio %, 240 minutes (%)
CD73 antibody 2H2 (antibody, V domains shown, also called Clone 2H2) VH: EVKLVESGGGLVQPGGSLKLSCATSGFTFSDYYMYWVRQTPEKRLEWVAYISNVGGSTYYPDTVKGRFTISRDNAKNTLYLQMSRLKSEDTAMYYCARGDGYYGYYFDVWGAGTTVTVSS VL: ENVLTQSPAIMSASPGEKVTMTCSASSSVSYMHWYQQKSGTSPKRWIYDTSKLASGVPTRFSGSGSGTSFSLTISSMEAEDAATYYCQQWSSNPYTFGGGTKLEIK	33.4
CD73 antibody 14E4 (antibody, V domains shown, Mouse variable regions on human IgG heavy chain constant region and human kappa constant region (chimeric IgG); also called Clone 14E4) VH: QVQLQQSGPELVKPGASVKISCKASGYIFTNYYIHWVKQRPGQGLEWIGWIFPGSGNTKYSEKFKDKATLTADTSSSTAYMQLSSLTSEDSAVYFCAGLSDWGQGTTLTVSS VL: DIQMTQSPSSLSASLGERVSLTCRASQDIGDRLIWLQQEPAGTFKRLIYATSSLDSGVPKRFSGSRSGSDYSLTISSLESEDFVDYYCLQYASSPWTFGGGTKLEIK	12.7

Per the records, this binder ( CD73 antibody 8A8 (antibody, V domains shown, Mouse variable regions on human IgG heavy chain constant region and human kappa constant region (chimeric IgG); also called Clone 8A8) VH: QVQFQQSGAELARPGASVKLSCKASGYIFTSYWIQWIKQRPGQGLEWIGAIYPGDGDTRYTQKFKGKATLTADKSSSTAYMQLRSLASEDSAVYYCAGFASWGQGTLLTVSA VL: DIQMTQSPSSLSASLGERVSLTCRASQDIGESLIWLQQEPDGTIKRLIYATSSLDSGVPKRFSGSRSGSDYSLSISSLESDDFVDYYCLQYSSSPYTFGGGTKLEIK ) has CD73 endocytosis ratio %, 240 minutes equal to 44.2
